Parameter: Activity (c.p.m. 50ul-1). Scope: all listed entries.
Target Entity: Human immunodeficiency virus type 1 reverse transcriptase (Human immunodeficiency virus 1) (UniProt Q72547)
Assay Explanation: Compound ability to inhibit the production of HIV reverse transcriptase (RT) in preinfected PBL (peripheral blood lymphocytes) at 10 days at a concentration 5 uM
Format: functional
Hey, just send me the number, nothing else.

Solved cases (2 shown):
>>> measured_result("CCCCCCCCCCCCCCCCOP(=O)(OC[C@H]1OC(O)[C@@H](O)[C@@H](O)[C@@H]1O)OC[C@H]1OC(n2cc(C)c(=O)[nH]c2=O)C[C@@H]1N=[N+]=[N-] (stereo partly drawn)")
28000
>>> measured_result("Cc1cn([C@H]2C[C@H](N=[N+]=[N-])[C@@H](COP(=O)(O)OC[C@H]3OC(O)[C@@H](O)[C@@H](O)[C@@H]3O)O2)c(=O)[nH]c1=O (stereo partly drawn)")
936

Could you now consider this next compound?
Consider the compound Cc1cn([C@H]2C[C@H](N=[N+]=[N-])[C@@H](COP(=O)(O)OCCO[C@H]3O[C@H](CO)[C@@H](O)[C@H](O)[C@@H]3O)O2)c(=O)[nH]c1=O . State its measured Activity (c.p.m. 50ul-1).
1100

---

Target Entity: Human immunodeficiency virus type 1 reverse transcriptase (Human immunodeficiency virus 1)
Assay Explanation: Compound ability to inhibit the production of HIV reverse transcriptase (RT) in culture supernatant of monocytic U937 on at 11 days at a concentration 0.2 uM
Assay type: functional
Each item that follows carries a reported Activity (c.p.m. 50ul-1).
The response must contain the number and no unit.

Observe how each entry below is paired with its result.
>>> measured_result("CCCCCCCCCCCCCCCCOP(=O)(OCCO[C@H]1O[C@H](CO)[C@@H](O)[C@H](O)[C@@H]1O)OCC1OC(n2cc(C)c(=O)[nH]c2=O)CC1N=[N+]=[N-] (some centres undefined)")
131000
>>> measured_result("Cc1cn([C@H]2C[C@H](N=[N+]=[N-])[C@@H](CO)O2)c(=O)[nH]c1=O [ZIDOVUDINE]")
152000
>>> measured_result("CCCCCCCCCCCCCCCCOP(=O)(OC[C@H]1OC(O)[C@H](O)[C@@H](O)[C@@H]1O)OC[C@H]1OC(n2cc(C)c(=O)[nH]c2=O)C[C@@H]1N=[N+]=[N-] (some centres undefined)")
178000

Turning now to a further molecule:
Give a short answer stating reported Activity (c.p.m. 50ul-1) for CCCCCCCCCCCCCCCCOP(=O)(OC[C@H]1OC(O)[C@@H](O)[C@@H](O)[C@@H]1O)OC[C@H]1OC(n2cc(C)c(=O)[nH]c2=O)C[C@@H]1N=[N+]=[N-] (some centres undefined) .
227000

---

Recorded measurements of inhibition, one per entry
Target Entity: UniProtKB Q72547
Experimental Setup: at 25 µM
Description: Percent inhibition measured as the production of HIV reverse transcriptase (RT) in culture supernatant of monocytic U937 on at 14 days at a concentration 25 uM
Write the number in % without appending the unit.

Read off the recorded inhibition for Cc1cn([C@H]2C[C@H](N=[N+]=[N-])[C@@H](COP(=O)(O)OC[C@H]3OC(O)[C@H](O)[C@@H](O)[C@@H]3O)O2)c(=O)[nH]c1=O (some centres undefined)
0

Fill in reported inhibition for this entry: Cc1cn([C@H]2C[C@H](N=[N+]=[N-])[C@@H](COP(=O)(O)OC[C@H]3OC(O)[C@@H](O)[C@@H](O)[C@@H]3O)O2)c(=O)[nH]c1=O (some centres undefined)
0

// Input: Cc1cn([C@H]2C[C@H](N=[N+]=[N-])[C@@H](COP(=O)(O)OCCO[C@H]3O[C@H](CO)[C@@H](O)[C@H](O)[C@@H]3O)O2)c(=O)[nH]c1=O . Output its inhibition only.
41

Report inhibition, nothing else, for this molecule: Cc1cn([C@H]2C[C@H](N=[N+]=[N-])[C@@H](CO)O2)c(=O)[nH]c1=O [ZIDOVUDINE]
0

Where do the numbers come from? From ChEMBL document CHEMBL1125259.
